Quick list: Kd per entry.
Target: AgrA (Staphylococcus aureus, UniProt P0A0I7)
Sequence (P0A0I7 137-238): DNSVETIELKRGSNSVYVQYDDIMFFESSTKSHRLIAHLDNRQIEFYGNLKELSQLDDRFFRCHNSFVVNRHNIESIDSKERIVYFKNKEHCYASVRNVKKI
Assay: ITC with purified AgrAC, one-site fit, N fixed to […]
Type: binding

Briefly, Kd measured for Cc1ccc(-c2nc(C(=O)O)cs2)cc1 : 417 µM

Briefly, Kd measured for O=C(O)C1c2ccccc2Oc2ccccc21 : 485 µM
